B1: FAM46D (parent)
chain: FQEAMTHLQHKLICTRKPEEIRGG

Variants of: B1
assayName: protein stability index of a GFP-peptide fusion (GPS, HEK-293T) (PSI 1-6); higher = more stable;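 also: lentivirally expressed fusions sorted by FACS into six bins by GFP to DsRed ratio, PSI derived from sequencing read proportions per bin multiplied by bin number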
studyConditions: c terminus: a fixed tail appended
Each record's protein stability index is compared with low (below 2), mid (2 to below 3), high (3 or more) to give its class.

Recorded results for 8 variants are shown here.
changes: C14G
label: mid

changes: A4E
label: high

changes: I21N
label: high

changes: L8E
label: high

changes: T6K
label: low

changes: K11M
label: low

changes: I21P
label: high

changes: E3D
label: mid

Consider F1C . To which protein stability index class does it belong?
high

GET /class?item= R22W
low

Lab note: which band did I21F land in?
mid
